Test system: Hs578T
Test: Matrigel outgrowth assay/branching assay
Assay type: cell-based
Settings: Homo sapiens, Hs-578T; HS578T cell line; Table Ib; read-out: Total branching inhibition in Matrigel HS578T
pIC50: −log10 of the molar value.
quantityName: pIC50

Completed entries (count: 5):
compound | valueReported
COc1cc2c(Oc3ccc(NS(=O)(=O)c4c(C)nn(C)c4C)cc3F)ccnc2cc1OCCCN1CCC(C)CC1 | 4.60 to 5.00
COc1cc2c(Oc3ccc(NS(=O)(=O)c4csc5ccccc45)cc3F)ccnc2cc1OCCCN1CCCCC1C (centres unmarked) | ≥ 5.00
COc1cc2c(Oc3ccc(NS(=O)(=O)c4ccccc4C(F)(F)F)cc3F)ccnc2cc1OCC(=O)N(C)C | ≥ 5.00
COc1cc2c(Oc3ccc(Cl)c(NS(=O)(=O)c4ccccc4C(F)(F)F)c3)ccnc2cc1OCCCN1CCC(C)CC1 | 4.60 to 5.00
COc1cc2c(Oc3ccc(Cl)c(NS(=O)(=O)c4cc(Cl)ccc4Cl)c3)ccnc2cc1OCCCN1CCC(C)CC1 | 4.60 to 5.00

State its pIC50 on Hs578T: `COc1cc2c(Oc3ccc(NS(=O)(=O)c4csc5ccccc45)cc3F)ccnc2cc1OCCCN1CCCCC1`
≥ 5.00

State its pIC50 on Hs578T: COc1cc2c(Oc3ccc(NS(=O)(=O)c4cccs4)cc3F)ccnc2cc1OCCCN1CCCCC1C (centres unmarked)
4.60 to 5.00

State its pIC50 on Hs578T: `COc1cc2c(Oc3ccc(NS(=O)(=O)c4ccccc4OC(F)(F)F)cc3F)ccnc2cc1OCCCN1CCN(C)CC1`
≥ 5.00

State its pIC50 on Hs578T: `COc1cc2c(Oc3cccc(NS(=O)(=O)c4ccccc4C(F)(F)F)c3)ccnc2cc1OCCCN1CCN(C)CC1`
4.60 to 5.00

State its pIC50 on Hs578T: `COc1cc2c(Oc3c(Cl)cc(NS(=O)(=O)c4c(F)cccc4F)cc3Cl)ccnc2cc1OCCCN1CCC(C)CC1`
≥ 5.00

State its pIC50 on Hs578T: `COc1cc2c(Oc3cccc(NS(=O)(=O)c4ccc(Cl)s4)c3)ccnc2cc1OCCCN1CCN(C)CC1`
≥ 5.00

State its pIC50 on Hs578T: COc1cc2c(Oc3ccc(NS(=O)(=O)c4cc(F)ccc4F)cc3F)ccnc2cc1OCCCN1CCCCC1C (centres unmarked)
≥ 5.00

State its pIC50 on Hs578T: `COc1cc2c(Oc3cccc(NS(=O)(=O)c4ccco4)c3)ccnc2cc1OCCCN1CCN(C)CC1`
4.60 to 5.00

State its pIC50 on Hs578T: `COc1cc2c(Oc3ccc(NS(=O)(=O)c4cccs4)cc3F)ccnc2cc1OCCCN(C)C`
4.60 to 5.00

State its pIC50 on Hs578T: `COc1cc2c(Oc3cccc(NS(=O)(=O)c4ccn(C)n4)c3)ccnc2cc1OCCCN1CCN(C)CC1`
4.60 to 5.00

State its pIC50 on Hs578T: `CCn1cc(S(=O)(=O)Nc2cccc(Oc3ccnc4cc(OCCCN5CCN(C)CC5)c(OC)cc34)c2)cn1`
4.60 to 5.00

State its pIC50 on Hs578T: `COc1cc2c(Oc3ccc(NS(=O)(=O)c4ccc(F)c(F)c4F)cc3F)ccnc2cc1OCCCN1CCN(C)CC1`
≥ 5.00
